Origin of measurements: PubChem BioAssay (NCI)

- Tested on: OVCAR-8 ovarian
- testSummary: NCI tumour cell line growth inhibition, 48 h
readoutType: TGI

Below, 8 compounds whose answers are already recorded.
compound | TGI
CCOc1ccccc1NC(=O)CCC(=O)NN | > 100 µM
O=C(O)C12C3C4(C(=O)O)C1C1(C(=O)O)C2C3(C(=O)O)C41 (stereo not drawn) | > 100 µM
CC[C@H](C)[C@H](NC(=O)N[C@@H](C)c1ccccc1)C(=O)N(C)[C@H](C[C@@H](OC(C)=O)c1nc(C(=O)N[C@@H](Cc2ccccc2)C[C@H](C)C(=O)OC)cs1)C(C)C | > 100 µM
COc1cc(/C=C2\C(=O)Nc3ccc(Br)cc32)cc(OC)c1OC | > 100 µM
CN(C)C(=O)/N=C1\SC(=Nc2ccccc2)C(=Nc2ccccc2)N1c1ccc([N+](=O)[O-])cc1 | > 100 µM
O=C(O)CCSc1ncnc2nc[nH]c12 | > 100 µM
COc1ccc(-c2conc2-c2ccccc2)cc1 | > 100 µM
COC(=O)[C@@H]1[C@H]2CC[C@]3(C)[C@@H](OC(C)=O)CC[C@H]3[C@@H]2CC[C@H]1C1(C)SCCS1 | 70.6 µM

# TGI of N#CC1=C(N)NC(=S)C(C#N)C12Nc1ccccc1S2 (stereo not drawn) = 65 µM
